measured_target: Human plasma kallikrein (Homo sapiens (Human), UniProt P03952)
Sequence (P03952 391-638): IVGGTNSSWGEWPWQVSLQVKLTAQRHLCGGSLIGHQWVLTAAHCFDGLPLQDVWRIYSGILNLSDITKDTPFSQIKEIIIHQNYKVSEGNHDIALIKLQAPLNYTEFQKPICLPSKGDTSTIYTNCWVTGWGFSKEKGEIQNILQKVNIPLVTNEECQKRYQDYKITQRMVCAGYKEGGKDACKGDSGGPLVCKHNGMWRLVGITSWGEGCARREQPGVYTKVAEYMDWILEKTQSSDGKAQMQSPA
Sequence (P03952 20-390 partner): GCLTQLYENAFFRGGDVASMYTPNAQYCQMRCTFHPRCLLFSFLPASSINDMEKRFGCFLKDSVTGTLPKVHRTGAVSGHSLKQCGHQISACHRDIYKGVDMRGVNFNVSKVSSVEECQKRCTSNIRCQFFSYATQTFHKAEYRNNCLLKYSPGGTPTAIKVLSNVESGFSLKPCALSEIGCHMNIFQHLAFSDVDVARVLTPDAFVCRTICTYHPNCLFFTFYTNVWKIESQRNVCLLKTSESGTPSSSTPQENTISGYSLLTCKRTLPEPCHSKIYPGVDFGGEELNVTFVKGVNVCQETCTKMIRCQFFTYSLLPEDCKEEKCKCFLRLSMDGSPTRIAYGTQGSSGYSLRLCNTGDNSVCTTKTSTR
method_summary: Determination of the IC50 for plasma kallikrein
experimental_conditions: 25° C., fluorogenic substrate H-DPro-Phe-Arg-AFC; read-out: IC50 (human PKaI)
For each record, write down the corresponding pIC50.
Lab note — pIC50 values are minus log10 of concentrations in M.

**Query** Find the recorded pIC50 belonging to COCc1nn(Cc2ccc(Cn3ccccc3=O)cc2)cc1C(=O)NCc1cccc(OC(F)F)c1 [Example 91] and report it.
**Result** 6.28

**Query** # query: pIC50 of entry COc1cccc(CNC(=O)c2cn(Cc3ccc(Cn4ccccc4=O)cc3)nc2N(C)C(C)=O)c1F [Example 72]
**Result** 5.18

**Query** Which value of pIC50 has been reported for COCc1nn(Cc2ccc(Cn3ccccc3=O)cc2)cc1C(=O)NCc1cc(F)cc(OC)c1 [Example 95] in the records?
**Result** 6.51

**Query** Look up pIC50 for this molecule: COc1ccc(CNC(=O)c2cn(Cc3ccc(Cn4cc(C)cn4)cc3)nc2C(F)(F)F)c(OC)c1 [Example 10]
**Result** 5.90

**Query** Name the reported pIC50 value associated with the molecule O=C(NCc1c(F)cccc1C(F)(F)F)c1cn(Cc2ccc(Cn3ccccc3=O)cc2)nc1C(F)(F)F [Example 51]
**Result** 7.31

**Query** Fill in the blank: the reported pIC50 of COCc1nn(Cc2ccc(Cn3ccccc3=O)cc2)cc1C(=O)NCc1csc2ccc(Cl)cc12 [Example 45] is ____.
**Result** 6.84
